In this section, each of the compounds is paired with its reported Ki.
biological target: hCA I (Homo sapiens, UniProt P00915); assay: biochemical
Sequence (P00915 whole entry): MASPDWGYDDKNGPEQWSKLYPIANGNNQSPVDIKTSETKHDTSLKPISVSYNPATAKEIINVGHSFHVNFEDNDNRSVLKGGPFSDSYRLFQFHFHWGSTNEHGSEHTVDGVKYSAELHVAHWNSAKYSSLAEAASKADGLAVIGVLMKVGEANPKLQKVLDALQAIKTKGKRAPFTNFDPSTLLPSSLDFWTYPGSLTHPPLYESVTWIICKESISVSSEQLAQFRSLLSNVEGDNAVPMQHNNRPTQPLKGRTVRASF
Enter the number, and then the unit.

Solved cases below.
>>> reported_result("COc1ccc(C2=NN(c3ccc(S(N)(=O)=O)cc3)C(c3ccccc3)C2)cc1 (centres unmarked) [Compound 11]")
"533 nM"
>>> reported_result("NS(=O)(=O)c1ccc(N2N=C(c3ccc([N+](=O)[O-])cc3)CC2c2ccccc2)cc1 (centres unmarked) [Compound 15]")
"326 nM"
>>> reported_result("NS(=O)(=O)c1ccc(N2N=C(c3ccc(O)cc3)CC2c2ccccc2)cc1 (centres unmarked) [Compound 16]")
"472 nM"
>>> reported_result("NS(=O)(=O)c1ccc(N2N=C(c3ccc(F)cc3)CC2c2ccccc2)cc1 (centres unmarked) [Compound 13]")
"462 nM"

From here, focus on the item given below.
Answer with the recorded Ki of NS(=O)(=O)c1ccc(N2N=C(c3ccc(Cl)cc3)CC2c2ccccc2)cc1 (centres unmarked) [Compound 12] only.
378 nM
